Source: PubChem BioAssay AID179

test system: CEM cells HIV-1 protection, formazan growth assay; assay: NCI AIDS Antiviral Assay; details: measured here: growth of uninfected CEM cells
pIC50: −log10 of the molar value. Where a SMILES comes first, the peptide text is derived from it.
propertyLabel: pIC50

compound	measurement
CNS(=O)(=O)NN(C)S(=O)(=O)c1ccc(C)cc1	< 3.70
COc1cccc2cc(C)c(C(=O)c3ccccc3)nc12	< 4.19
O=C1CC23CC4CC(CC(C4)C2O1)C3 (stereo not drawn)	< 3.70
Cn1c2ccccc2c2cc(N3CCCC3)c3c(c21)C(=O)N(c1ccccc1)C3=O	< 3.70
CCOC(=O)C1Sc2ccccc2N=C1C (stereo not drawn)	< 4.51
COc1c(C)c2c(c3c1c(=O)c1ccccc1n3C)C=CC(C)(C)O2	4.96

QUERY: Hi! What's the reported pIC50 for `C=C(COCO)C(C)=O` on CEM cells HIV-1 protection, formazan growth assay?
RESULT: 5.84

QUERY: And CC(C)(C)[Si](C)(C)OCC1OC(n2cnc3c(=O)[nH]c(NCc4ccccc4)nc32)C(O[Si](C)(C)C(C)(C)C)C1O[Si](C)(C)C(C)(C)C (stereo not drawn) ?
RESULT: 3.85

QUERY: And `O=c1c(-c2ccc(O)cc2)coc2c(O)c(O)ccc12` ?
RESULT: 4.54

QUERY: And NCCCCC(NC(=O)C(CO)NC(=O)C(CO)NC(=O)CN)C(=O)NC(CO)C(=O)NC(CCCCN)C(=O)N1CCCC1C(=O)NC(CCCCN)C(=O)NC(CC(=O)O)C(N)=O (stereo not drawn) (H-GSSKSKPKD-NH2; configuration not given here) ?
RESULT: < 3.57

QUERY: And O=C1CCC2c3[nH]c4ccccc4c3CCN12 (stereo not drawn) ?
RESULT: 3.73

QUERY: And `O=C(/C=C(\C(=O)c1cccs1)c1cccs1)c1ccc(C(=O)/C=C(\C(=O)c2cccs2)c2cccs2)cc1` ?
RESULT: < 3.70

QUERY: And `O=C(O)c1cc(=O)c2cc(C(=O)c3cccs3)c(Cl)c(Cl)c2o1` ?
RESULT: < 5.02

QUERY: And NC(=O)C1=NOC(C(N)=O)C1C1OC(CO)C(O)C1O (stereo not drawn) ?
RESULT: < 3.70
